Below, each entry is listed alongside its reported pKd.
# study target: Human P300 KIX domain (EP300 KIX domain) (human, UniProt Q09472 565-652)
# Sequence (Q09472 565-652): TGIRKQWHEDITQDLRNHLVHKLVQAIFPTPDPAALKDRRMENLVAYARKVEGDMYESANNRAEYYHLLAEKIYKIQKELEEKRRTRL
# assay protocol: fluorescence polarisation
pKd: −log10 of the molar value. Ends that are not written are not given here. * marks the point of attachment. FITC = O=C1OC2(c3ccc(O)cc3Oc3cc(O)ccc32)c2ccc(NC(=S)*)cc21
measured property: pKd

{FITC}-KEKRIKELELLLMSTENELKGQQAL [FITC-labelled MYB peptide (MYB25)]    5.42
SDDGNILPSDIMDFVLKNTPSMQAL (also: rhodamine label, position not given here) [Rhodamine-labelled MLL peptide (MLL25)]    4.40
